biological target: Cyclin-dependent kinase 2/cyclin A (Homo sapiens, UniProt P24941); test: Inhibition of cyclin dependent kinase 2-cyclin A
The label yes (1) is reserved for IC50 strictly under 0.04 µM; no (0) covers values equal to or above it.

Past entries and their recorded results:
- C[C@@H](C(=O)Nc1cc(C2CC2)[nH]n1)c1ccc(N2Cc3ccccc3C2=O)cc1: no (0)
- CC(C(=O)Nc1cc(C2CC2)[nH]n1)c1ccc(N2C(=O)CCC2C)cc1 (stereo unspecified): no (0)
- CC(C(=O)Nc1cc(C2CC2)[nH]n1)c1ccccc1 (stereo unspecified): no (0)

Task: Please indicate whether the reported IC50 of CC(C(=O)Nc1cc(C2CC2)[nH]n1)c1ccc(N2CCC(C(N)=O)C2=O)cc1 (stereo unspecified) is strictly below 0.04 µM.
Output: yes (1)

Task: Consider `C[C@H](C(=O)Nc1cc(C2CC2)[nH]n1)c1ccc(N2CCOC2=O)cc1` . Does its IC50 lie strictly below 0.04 µM?
Output: yes (1)

Task: Strictly below 0.04 µM: is that where IC50 of `CO[C@@H](C(=O)Nc1cc(C2CC2)n[nH]1)c1ccccc1` sits?
Output: no (0)
